Source of measurements: patent US7875647B2

- Experimental System: Cannabinoid-1 receptor (CB1R) (Rattus norvegicus, UniProt P20272)
- Construct: The tissue obtained from the brain of SD rats was homogenized; from tissue; host or cells: brain of SD rats (membrane pellet of the homogenate)
- Sequence (P20272 whole entry): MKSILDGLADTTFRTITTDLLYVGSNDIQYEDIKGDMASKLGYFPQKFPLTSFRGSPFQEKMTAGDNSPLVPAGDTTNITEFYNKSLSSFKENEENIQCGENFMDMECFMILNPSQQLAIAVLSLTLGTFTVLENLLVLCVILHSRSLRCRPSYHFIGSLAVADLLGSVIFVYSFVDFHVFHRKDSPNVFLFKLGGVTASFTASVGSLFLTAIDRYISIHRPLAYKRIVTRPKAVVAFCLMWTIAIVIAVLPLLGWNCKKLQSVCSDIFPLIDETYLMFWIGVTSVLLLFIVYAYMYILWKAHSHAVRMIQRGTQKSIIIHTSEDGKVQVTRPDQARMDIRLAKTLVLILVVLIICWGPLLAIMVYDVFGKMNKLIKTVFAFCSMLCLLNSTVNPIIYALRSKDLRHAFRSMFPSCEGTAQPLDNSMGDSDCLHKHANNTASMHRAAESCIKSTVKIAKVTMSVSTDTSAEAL
- Protocol Text: Cannabinoid-1 receptor (CB1R) binding affinity assay ([3H]CP-55940, rat CB-1 receptor binding protocol)
- Test Settings: brain tissue of SD rats, [3H]CP-55940, 30° C. 60 min; read-out: IC50
Outcome Measure: pIC50
Recall that pIC50 is obtained by taking minus log10 of the concentration measured in molar.

Report pIC50 for "CCCCCc1nnc(-c2nn(-c3ccc(Cl)cc3Cl)c(-c3ccc(Cl)cc3)c2C)s1" please.
7.16

Report pIC50 for "CCc1c(-c2nnc(C3(c4ccc(Cl)cc4)CCC3)o2)nn(-c2ccc(Cl)cc2Cl)c1-c1ccc(Cl)cc1" please.
8.13

Report pIC50 for "Cc1c(-c2nnc(C3(c4ccc(Cl)cc4)CCC3)o2)nn(-c2cc(Cl)ccc2Cl)c1-c1ccc(Cl)cc1" please.
6.70

Report pIC50 for CCC(C)c1nc(-c2nn(-c3ccc(Cl)cc3Cl)c(-c3ccc(Cl)cc3)c2C)n[nH]1 (stereo not drawn) please.
6.08

Report pIC50 for "Cc1c(-c2nnc(C(C)(C)C3CCCCC3)o2)nn(-c2ccc(Cl)cc2Cl)c1-c1ccc(Cl)cc1" please.
7.82

Report pIC50 for "Clc1ccc(-c2c(Cn3cncn3)c(-c3nnc(C4(c5ccc(Cl)cc5)CCCC4)o3)nn2-c2ccc(Cl)cc2Cl)cc1" please.
8.33

Report pIC50 for "Cc1c(-c2nnc(C3CCOCC3)o2)nn(-c2ccc(Cl)cc2Cl)c1-c1ccc(Cl)cc1" please.
6.79

Report pIC50 for "CCc1c(-c2nnc(C3(c4ccc(F)cc4)CC3)s2)nn(-c2ccc(Cl)cc2Cl)c1-c1ccc(Br)cc1" please.
8.65

Report pIC50 for "Cc1c(-c2nnc(CC3CCCCC3)s2)nn(-c2ccc(Cl)cc2Cl)c1-c1ccc(Br)cc1" please.
7.61

Report pIC50 for "CCCn1nnnc1-c1nn(-c2ccc(Cl)cc2Cl)c(-c2ccc(Cl)cc2)c1C" please.
7.16

Report pIC50 for "CCCc1nc(-c2nn(-c3ccc(Cl)cc3Cl)c(-c3ccc(Cl)cc3)c2C)n[nH]1" please.
6.28

Report pIC50 for "Cc1c(-c2nnnn2Cc2ccsc2)nn(-c2ccc(Cl)cc2Cl)c1-c1ccc(Cl)cc1" please.
7.40

Report pIC50 for "CCc1c(-c2nnc(C3(c4ccc(Cl)cc4Cl)CC3)s2)nn(-c2ccc(Cl)cc2Cl)c1-c1ccc(Br)cc1" please.
8.19

Report pIC50 for "Cc1c(-c2nnc(C(C)(C)C3CCCC3)s2)nn(-c2ccc(Cl)cc2Cl)c1-c1ccc(Cl)cc1" please.
7.71

Report pIC50 for "CCc1c(-c2nnc(C3(c4ccc(Cl)cc4)CCCC3)s2)nn(-c2ccc(Cl)cc2Cl)c1-c1ccc(Br)cc1" please.
7.64
